# System: Wild Oats
# experimentDescription: Post-emergence herbicidal activity (Example 32)
# Type: in vivo
# protocolConditions: 5 kg/ha, 3 weeks after spraying
# Procedure: […] The post-emergent herbicidal activity of the compounds of the invention formulated as described in Example 30 was assessed by the following procedure. The seeds of the test species were sown in rows 2 cm deep in soil contained in seed boxes. […] After the plants had grown to a height of about 10 to 12.5 cm one box of each of the monocotyledonous plants and the dicotyledonous plants was removed from the glasshouse and sprayed with the required quantity of a composition of the invention. […]
Measured damage to plants, Ot, listed per entry.

Answered cases to consult:
- compound: "CC(Oc1ccc(N(C)c2ccc(C(F)(F)F)cc2[N+](=O)[O-])cc1)C(=O)OC1CCCCC1 (stereo not drawn)"
  observedValue: "3+ (3+ represents 100% kill)"
- compound: "COC(=O)C(C)Oc1ccc(N(C)c2ccc(Cl)cc2)cc1 (stereo not drawn)"
  observedValue: "0 (0 represents 0 to 25% damage)"
- compound: "COC(=O)C(C)Oc1ccc(Nc2ccc(Cl)cc2Cl)cc1 (stereo not drawn)"
  observedValue: "3+ (3+ represents 100% kill)"
- compound: "COC(=O)C(C)Oc1ccc(Nc2ccc(C)cc2[N+](=O)[O-])cc1 (stereo not drawn)"
  observedValue: 1
- compound: "CC(Oc1ccc(Nc2ccc(Cl)cc2[N+](=O)[O-])cc1)C(=O)OC1CCCCC1 (stereo not drawn)"
  observedValue: "3 (3 represents 75 to 99% kill)"

Q: # lookup: damage to plants, Ot of COC(=O)C(C)Oc1ccc(N(C)c2ccc(C(F)(F)F)cc2)cc1 (stereo not drawn)
Ans: 0 (0 represents 0 to 25% damage)

Q: # lookup: damage to plants, Ot of C#CCN(c1ccc(OC(C)C(=O)OC)cc1)c1ccc(C(F)(F)F)cc1[N+](=O)[O-] (stereo not drawn)
Ans: 3+ (3+ represents 100% kill)

Q: # lookup: damage to plants, Ot of COC(=O)C(C)Oc1ccc(Nc2ccc(C(F)(F)F)cc2[N+](=O)[O-])cc1 (stereo not drawn)
Ans: 3+ (3+ represents 100% kill)

Q: # lookup: damage to plants, Ot of COC(=O)C(C)Oc1ccc(N(C)c2ccc([N+](=O)[O-])cc2[N+](=O)[O-])cc1 (stereo not drawn)
Ans: 3 (3 represents 75 to 99% kill)

----------
Measured herbicidal damage, Am, listed per entry.
# Tested on: Amaranthus retroflexus
# experimentDescription: Pre-emergence herbicidal test, fibre trays (Example 33)
# Format: in vivo
# protocolConditions: 2.0 kg/ha, after 21 days

- compound: "COC(=O)C(C)Oc1ccc(Nc2ccc(C(F)(F)F)cc2[N+](=O)[O-])cc1Cl (stereo not drawn) [Compound 116]"
  observedValue: "0 (0 is 0 to 20% damage)"
- compound: "COC(=O)C(C)Oc1ccc(N(C)c2ccc(Cl)cc2[N+](=O)[O-])cc1 (stereo not drawn) [Compound 27]"
  observedValue: "0 (0 is 0 to 20% damage)"
- compound: "COC(=O)C(C)Oc1ccc(N(C)c2ccc([N+](=O)[O-])cc2[N+](=O)[O-])cc1 (stereo not drawn) [Compound 18]"
  observedValue: "0 (0 is 0 to 20% damage)"
- compound: "C#CCN(c1ccc(OC(C)C(=O)OC)cc1)c1ccc(C(F)(F)F)cc1[N+](=O)[O-] (stereo not drawn) [Compound 81]"
  observedValue: "0 (0 is 0 to 20% damage)"
- compound: "COC(=O)C(C)Oc1ccc(Nc2ccc(Br)cc2[N+](=O)[O-])cc1 (stereo not drawn) [Compound 29]"
  observedValue: "0 (0 is 0 to 20% damage)"

Now examine the next entry.
Q: # lookup: herbicidal damage, Am of COC(=O)C(C)Oc1ccc(N(C)c2ccc(Br)cc2[N+](=O)[O-])cc1 (stereo not drawn) [Compound 30]
Ans: 1

----------
# System: Rape
# experimentDescription: Post-emergence herbicidal test, young pot plants (Example 33)
# Assay type: in vivo
# protocolConditions: 2.0 kg/ha, after 14 days
Measured damage to test plants, Rp, listed per entry.
Give the figure only, with no unit attached.

Answered cases to consult:
- compound: "COC(=O)C(C)Oc1ccc(Nc2ccc(Br)cc2[N+](=O)[O-])cc1 (stereo not drawn)"
  quantityKind: "damage to test plants, Rp"
  observedValue: 1
- compound: "COC(=O)C(C)Oc1ccc(N(C)c2ccc(Cl)cc2Cl)cc1 (stereo not drawn)"
  quantityKind: "damage to test plants, Rp"
  observedValue: 2
- compound: "COC(=O)C(C)Oc1ccc(Nc2ccc([N+](=O)[O-])cc2[N+](=O)[O-])cc1 (stereo not drawn)"
  quantityKind: "damage to test plants, Rp"
  observedValue: 2

Now examine the next entry.
Q: # lookup: damage to test plants, Rp of COC(=O)C(C)Oc1ccc(N(C)c2ccc(Br)cc2[N+](=O)[O-])cc1 (stereo not drawn)
Ans: 1

----------
Measured damage to plants, Ms, listed per entry.
# Tested on: Mustard
# experimentDescription: Post-emergence herbicidal activity (Example 32)
# Type: in vivo
# protocolConditions: 5 kg/ha, 3 weeks after spraying

Answered cases to consult:
- compound: "COC(=O)C(C)Oc1ccc(Nc2ccc(Cl)cc2Cl)cc1 (stereo not shown) [Compound 22]"
  testSystem: "Mustard"
  damage to plants, Ms: "3+ (3+ represents 100% kill)"
- compound: "COC(=O)C(C)Oc1ccc(N(C)c2ccc(Br)cc2[N+](=O)[O-])cc1 (stereo not shown) [Compound 30]"
  testSystem: "Mustard"
  damage to plants, Ms: "0 (0 represents 0 to 25% damage)"
- compound: "C#CCN(c1ccc(OC(C)C(=O)OC)cc1)c1ccc(C(F)(F)F)cc1[N+](=O)[O-] (stereo not shown) [Compound 81]"
  testSystem: "Mustard"
  damage to plants, Ms: "0 (0 represents 0 to 25% damage)"

Now examine the next entry.
Q: # lookup: damage to plants, Ms of CC(Oc1ccc(Nc2ccc(Cl)cc2[N+](=O)[O-])cc1)C(=O)OC1CCCCC1 (stereo not shown) [Compound 79]
Ans: 0 (0 represents 0 to 25% damage)

----------
# Tested on: Soy bean
# experimentDescription: Pre-emergence herbicidal test, fibre trays (Example 33)
# Assay type: in vivo
# protocolConditions: 2.0 kg/ha, after 21 days
Measured herbicidal damage, Sy, listed per entry.

Answered cases to consult:
- compound: "COC(=O)C(C)Oc1ccc(N(C)c2ccc(Cl)cc2Cl)cc1 (centres unmarked)"
  herbicidal damage, Sy: 2
- compound: "COC(=O)C(C)Oc1ccc(Nc2ccc(Br)cc2[N+](=O)[O-])cc1 (centres unmarked)"
  herbicidal damage, Sy: "0 (0 is 0 to 20% damage)"
- compound: "COC(=O)C(C)Oc1ccc(Nc2ccc(C(F)(F)F)cc2[N+](=O)[O-])cc1Cl (centres unmarked)"
  herbicidal damage, Sy: "0 (0 is 0 to 20% damage)"
- compound: "C#CCN(c1ccc(OC(C)C(=O)OC)cc1)c1ccc(C(F)(F)F)cc1[N+](=O)[O-] (centres unmarked)"
  herbicidal damage, Sy: "0 (0 is 0 to 20% damage)"

Now examine the next entry.
Q: # lookup: herbicidal damage, Sy of COC(=O)C(C)Oc1ccc(N(C)c2ccc(Br)cc2[N+](=O)[O-])cc1 (centres unmarked)
Ans: 0 (0 is 0 to 20% damage)

----------
# Tested on: Wheat
# experimentDescription: Pre-emergence herbicidal activity (Example 31)
# Format: in vivo
# Set-up: key: 0-3 scale: 0 = 0-25% damage, 3 = 75-99% kill, 3+ = 100% kill
# protocolConditions: 5 kg/ha, after three weeks
quantityKind: damage to plants, Wh
Give the figure only, with no unit attached.

Answered cases to consult:
- compound: "CC(Oc1ccc(Nc2ccc(C(F)(F)F)cc2[N+](=O)[O-])cc1)C(=O)O (centres unmarked)"
  damage to plants, Wh: 2
- compound: "COC(=O)C(C)Oc1ccc(N(C)c2ccc(Cl)cc2[N+](=O)[O-])cc1 (centres unmarked)"
  damage to plants, Wh: 1
- compound: "CC(Oc1ccc(N(C)c2ccc(C(F)(F)F)cc2[N+](=O)[O-])cc1)C(=O)OC1CCCCC1 (centres unmarked)"
  damage to plants, Wh: 1
- compound: "COC(=O)C(C)Oc1ccc(Nc2ccc(C)cc2[N+](=O)[O-])cc1 (centres unmarked)"
  damage to plants, Wh: 1
- compound: "COC(=O)C(C)Oc1ccc(Nc2ccc(Br)cc2N)cc1 (centres unmarked)"
  damage to plants, Wh: 1

Now examine the next entry.
Q: # lookup: damage to plants, Wh of COC(=O)C(C)Oc1ccc(Nc2ccc(Cl)cc2[N+](=O)[O-])cc1 (centres unmarked)
Ans: 2

----------
# System: Soy bean
# experimentDescription: Pre-emergence herbicidal test, fibre trays (Example 33)
# Assay type: in vivo
# protocolConditions: 2.0 kg/ha, after 21 days
quantityKind: herbicidal damage, Sy

Answered cases to consult:
- compound: "COC(=O)C(C)Oc1ccc(Nc2ccc(Cl)cc2)cc1 (stereo not shown)"
  herbicidal damage, Sy: 1
- compound: "COC(=O)C(C)Oc1ccc(N(C)c2ccc(Cl)cc2[N+](=O)[O-])cc1 (stereo not shown)"
  herbicidal damage, Sy: "0 (0 is 0 to 20% damage)"
- compound: "COC(=O)C(C)Oc1ccc(Nc2ccc([N+](=O)[O-])cc2[N+](=O)[O-])cc1 (stereo not shown)"
  herbicidal damage, Sy: 1

Now examine the next entry.
Q: # lookup: herbicidal damage, Sy of COC(=O)C(C)Oc1ccc(N(C)c2ccc([N+](=O)[O-])cc2[N+](=O)[O-])cc1 (stereo not shown)
Ans: 0 (0 is 0 to 20% damage)
